# Target Or System: Epidermal growth factor receptor (Homo sapiens) (UniProt P00533)
# Sequence (P00533 whole entry, looked up): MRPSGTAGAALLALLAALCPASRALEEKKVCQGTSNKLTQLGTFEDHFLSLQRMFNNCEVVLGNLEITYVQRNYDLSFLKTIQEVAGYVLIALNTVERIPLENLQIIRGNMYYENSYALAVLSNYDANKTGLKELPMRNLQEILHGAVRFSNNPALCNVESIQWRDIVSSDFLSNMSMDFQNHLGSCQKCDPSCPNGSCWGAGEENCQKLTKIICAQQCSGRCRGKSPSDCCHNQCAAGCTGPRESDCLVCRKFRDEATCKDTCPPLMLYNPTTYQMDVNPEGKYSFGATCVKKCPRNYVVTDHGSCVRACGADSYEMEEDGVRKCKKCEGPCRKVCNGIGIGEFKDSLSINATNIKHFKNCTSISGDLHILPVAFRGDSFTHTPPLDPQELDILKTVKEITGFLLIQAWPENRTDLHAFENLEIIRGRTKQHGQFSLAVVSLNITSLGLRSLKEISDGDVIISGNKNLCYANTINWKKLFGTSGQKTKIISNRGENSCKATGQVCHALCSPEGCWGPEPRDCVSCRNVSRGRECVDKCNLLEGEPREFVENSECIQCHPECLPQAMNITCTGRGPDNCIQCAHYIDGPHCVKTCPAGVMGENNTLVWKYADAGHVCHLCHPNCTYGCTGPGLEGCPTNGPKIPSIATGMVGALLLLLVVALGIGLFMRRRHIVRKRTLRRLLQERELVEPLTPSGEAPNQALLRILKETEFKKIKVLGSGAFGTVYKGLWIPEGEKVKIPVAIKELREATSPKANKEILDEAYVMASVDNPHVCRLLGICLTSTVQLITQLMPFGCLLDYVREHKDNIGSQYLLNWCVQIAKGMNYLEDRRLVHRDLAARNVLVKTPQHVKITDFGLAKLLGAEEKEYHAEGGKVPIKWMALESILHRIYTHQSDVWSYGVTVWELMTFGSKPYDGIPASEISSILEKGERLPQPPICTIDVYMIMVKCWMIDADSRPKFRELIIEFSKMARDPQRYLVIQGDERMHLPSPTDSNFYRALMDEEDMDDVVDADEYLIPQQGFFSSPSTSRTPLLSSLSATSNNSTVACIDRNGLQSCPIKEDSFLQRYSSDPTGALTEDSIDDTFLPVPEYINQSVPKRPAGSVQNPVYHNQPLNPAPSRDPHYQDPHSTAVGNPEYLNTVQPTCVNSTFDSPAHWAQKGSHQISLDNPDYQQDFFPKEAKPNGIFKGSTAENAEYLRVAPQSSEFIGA
# Assay Overview: EGFR binders on small-molecule microarrays, primary screen, biochemical, small-molecule microarray, 635 nm fluorescence (AID 1104);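 note: score merges 667 nm emission intensity with spot signal to noise over triplicate slides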
# Measurement Context: EGFR binding, higher = more signal
Kindly state composite z-score for each of the entries shown.
API note: the answer field is a bare number with no unit suffix.

Consider the compound shown here: O=C1OCCC/C=C\[C@H]2OC34C=CCN(CCN5CCOCC5)C(=O)[C@H]3N(CCCCCO)C(=O)[C@@H]4C12 (some centres undefined) What is its recorded composite z-score?
-1.33

Consider the compound shown here: `Cc1ccc([C@@H]2CC=C(C(=O)O)[C@H](c3ccccc3)N2S(=O)(=O)c2ccc(C)cc2)cc1` What is its recorded composite z-score?
-0.755

Consider the compound shown here: `[N-]=[N+]=NCc1ccccc1C[C@]1(C(=O)N2CCCCC2)N=C(c2ccc(OCCCO)cc2)O[C@H]1c1ccccc1CN=[N+]=[N-]` What is its recorded composite z-score?
-0.107

Consider the compound shown here: `COCCCNC(=O)[C@@H]1c2ccccc2C(=O)N(CC23CC4CC(CC(C4)C2)C3)[C@H]1c1ccc(CO)cc1` What is its recorded composite z-score?
0.215

Consider the compound shown here: `COCCOC(=O)N1C(=O)[C@@]2(c3cc(C#CC4=CCCCC4)ccc31)[C@H](C(=O)NC[C@H](O)c1ccccc1)[C@H]1C(=O)O[C@H](c3ccccc3)[C@H](c3ccccc3)N1[C@@H]2c1ccccc1OCCO` What is its recorded composite z-score?
0.366

Consider the compound shown here: `O=C1c2ccccc2[C@](Cc2ccccc2I)(C(=O)NCC(F)(F)F)[C@H](c2ccc(CO)cc2)N1Cc1ccccc1C(F)(F)F` What is its recorded composite z-score?
0.106

Consider the compound shown here: `O=C1O[C@H](c2ccccc2)[C@H](c2ccccc2)N2[C@H]1[C@@H](C(=O)NC[C@H](O)c1ccccc1)[C@]1(C(=O)Nc3ccc(C#CC4(O)CCCCCC4)cc31)[C@H]2c1ccc(OCCO)cc1` What is its recorded composite z-score?
0.0371

Consider the compound shown here: `C=C(CCCC)C(=O)CC[C@@H](OC(=O)c1cccnc1)c1cccc(OCCO)c1` What is its recorded composite z-score?
-0.237

Consider the compound shown here: `O=C(CS)NCCCCCNC(=O)[C@H]1C[C@H]2C(=O)N3CCC[C@H]3C(=O)N2[C@H]1c1ccc(O)cc1` What is its recorded composite z-score?
0.392

Consider the compound shown here: `COc1ccc([Si](C)(C)[C@H]2[C@H](CCO)O[C@@]3(C(=O)N(Cc4ccccc4)c4ccc(N5C(=O)c6cccc7cccc5c67)cc43)[C@@H]2C)cc1` What is its recorded composite z-score?
-0.835

Consider the compound shown here: `C[C@@H]1CC[C@H]2C(=O)N3[C@@H](CC[C@@H](C)[C@@H]3c3cccc(N4CCOCC4)c3)C(=O)N2[C@H]1c1cccc(N2CCOCC2)c1` What is its recorded composite z-score?
0.224

Consider the compound shown here: `CCC(=O)[C@]12O[C@@]3([C@@H]4C(=O)OCC[C@@H]41)N(CC)C(C)=C(C(=O)OC)[C@@H](c1ccccc1)N3C2=O` What is its recorded composite z-score?
0.0064

Consider the compound shown here: C#CCNC(/C=C/c1ccccc1)CO (centres undefined) What is its recorded composite z-score?
0.553

Consider the compound shown here: `O=C1C[C@@](C(=O)NCCN2CCOCC2)(c2ccc([N+](=O)[O-])cc2)[C@@H](c2ccc(CO)cc2)N1C1CCCCC1` What is its recorded composite z-score?
0.789
